# Tested on: NCI-H460
# Assay Comment: Antiproliferative activity against human H460 cells at 1 uM after 48 to 72 hrs by MTT assay relative to control
# Format: functional
Measured Endpoint: inhibition at 1 µM (%)
The reply should be a number in %, with the unit left off.

Lookup: Give me measured inhibition at 1 µM, please, for this compound: `N#Cc1cccc(COc2cccc(/C=N/NC(=O)c3cc4c(cn3)[nH]c3ccccc34)c2)c1`
Found: 12.8

Lookup: Give the value of inhibition at 1 µM reported for the following: `O=Cc1ccc(OCc2nnc(-c3cc4c(cn3)[nH]c3ccccc34)o2)cc1`
Found: 6.63

Lookup: For the compound `COc1ccc(COc2cccc(/C=N/NC(=O)c3cc4c(cn3)[nH]c3ccccc34)c2)cc1` , give its measured inhibition at 1 µM value.
Found: 38.6

Lookup: Provide inhibition at 1 µM value for the following compound: `O=C(N/N=C/c1cccc(Oc2ccccc2)c1)c1cc2c(cn1)[nH]c1ccccc12`
Found: 22.1

Lookup: Return reported inhibition at 1 µM. Input compound: `c1ccc(OCc2nnc(-c3cc4c(cn3)[nH]c3ccccc34)o2)cc1`
Found: 4.84

Lookup: // fetch inhibition at 1 µM given entry `O=Cc1cccc(OCc2nnc(-c3cc4c(cn3)[nH]c3ccccc34)o2)c1`
Found: 13.9

Lookup: Using the record for `O=C(N/N=C/c1ccc(-c2ccccc2)cc1)c1cc2c(cn1)[nH]c1ccccc12` , state its measured inhibition at 1 µM.
Found: 44.3

Lookup: Answer with reported inhibition at 1 µM of `O=C(N/N=C/c1cccc(O)c1)c1cc2c(cn1)[nH]c1ccccc12`
Found: 5.08

Lookup: Read the entry `Cc1ccc(COc2cccc(/C=N/NC(=O)c3cc4c(cn3)[nH]c3ccccc34)c2)cc1` and write its reported inhibition at 1 µM.
Found: 29.2

Lookup: Supply measured inhibition at 1 µM of `O=C(N/N=C/c1cccc(OCc2ccc(Br)cc2)c1)c1cc2c(cn1)[nH]c1ccccc12` in your reply.
Found: 52.8

Lookup: Give inhibition at 1 µM for `O=C(N/N=C/c1cccc(OCc2ccccc2)c1)c1cc2c(cn1)[nH]c1ccccc12`
Found: 29.7

Lookup: Respond only with inhibition at 1 µM recorded for `O=C(N/N=C/c1cccc(OCc2cccc(Cl)c2)c1)c1cc2c(cn1)[nH]c1ccccc12`
Found: 31.9

Lookup: Give me measured inhibition at 1 µM, please, for this compound: `COC(=O)c1ccc(COc2cccc(/C=N/NC(=O)c3cc4c(cn3)[nH]c3ccccc34)c2)cc1`
Found: 25.9

Lookup: Consider the compound `O=C(N/N=C/c1ccc2ccccc2c1)c1cc2c(cn1)[nH]c1ccccc12` . State its measured inhibition at 1 µM.
Found: 40.7

Lookup: Look up and report measured inhibition at 1 µM for this entry: `N#Cc1ccccc1COc1cccc(/C=N/NC(=O)c2cc3c(cn2)[nH]c2ccccc23)c1`
Found: 15.5

Lookup: Specify inhibition at 1 µM for `Cc1cccc(COc2cccc(/C=N/NC(=O)c3cc4c(cn3)[nH]c3ccccc34)c2)c1` and stop.
Found: 27.4

Lookup: Respond only with inhibition at 1 µM recorded for `C/C(=N\NC(=O)c1cccc(S(=O)(=O)N2CCOCC2)c1)c1cc(Cl)ccc1O`
Found: 43.2

Lookup: Tell me inhibition at 1 µM reported for `O=C(N/N=C/c1cccc(OCc2ccc(Cl)cc2)c1)c1cc2c(cn1)[nH]c1ccccc12`
Found: 40.4

Lookup: Give recorded inhibition at 1 µM. `COc1ccc(/C=N/NC(=O)c2cc3c(cn2)[nH]c2ccccc23)cc1OCc1ccccc1`
Found: 20.7

Lookup: Recall and state the measured inhibition at 1 µM for `O=C(N/N=C/c1cccc(OCc2cccc(F)c2)c1)c1cc2c(cn1)[nH]c1ccccc12` .
Found: 21.7

Cited source: ChEMBL document CHEMBL4152257
